Where these numbers come from: PubChem BioAssay AID2060623

Recorded viability, T/C for the following compounds
test system: 227483-062-R1-J1-PDC complex spheroids with HUVEC/MSC, viability; experiment: Anticancer human tumor 227483-062-R1-J1-PDC patient-derived pancreatic carcinoma cell line growth inhibition [CLK]; details: second compound 3.16 µM; first compound 0.1 µM; hits give low values;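 note: spheroids exposed to compounds for seven days before readout; percent of DMSO vehicle control luminescence as 100% viability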

compound	viability, T/C
CCCS(=O)(=O)Nc1ccc(F)c(C(=O)c2c[nH]c3ncc(-c4ccc(Cl)cc4)cc23)c1F + CN1CCN(c2cc(C(=O)Nc3cc4cc(-c5cnn(C)c5)ccc4cn3)ccn2)CC1	4.36%
Nc1ccn(C2OC(CO)C(O)C2(F)F)c(=O)n1 (stereo not given) + CNC(=O)c1ccc(Nc2nc(OC3CCCC3)c3c(-c4ccc5nc(C)oc5c4)c[nH]c3n2)c(OC)c1	20.8%
Nc1ccccc1NC(=O)c1ccc(CNC(=O)OCc2cccnc2)cc1 + CN1CCN(c2cc(C(=O)Nc3cc4cc(-c5cnn(C)c5)ccc4cn3)ccn2)CC1	4.66%
CC1(C)CCC(CN2CCN(c3ccc(C(=O)NS(=O)(=O)c4ccc(NCC5CCOCC5)c([N+](=O)[O-])c4)c(Oc4cnc5[nH]ccc5c4)c3)CC2)=C(c2ccc(Cl)cc2)C1 + CNC(=O)c1ccc(Nc2nc(OC3CCCC3)c3c(-c4ccc5nc(C)oc5c4)c[nH]c3n2)c(OC)c1	63.3%
CC(Nc1ccc2c(c1)OCCn1cc(N3C(=O)OCC3C(F)F)nc1-2)C(N)=O (stereo not given) + CN1CCN(c2cc(C(=O)Nc3cc4cc(-c5cnn(C)c5)ccc4cn3)ccn2)CC1	3.43%
